- targetDesc: Ubiquitin-like modifier-activating enzyme ATG7 (Homo sapiens)
- assayText: Inhibition of recombinant His-tagged human ATG7 incubated for 105 mins in presence of GST-tagged ATG3 and Flag-tagged Gabarap and measured after 2 hrs by FRET assay relative to control
Listed next: entries and their corresponding IC50.
endpointName: IC50 (nM)

compoundString | unitOfMeasurement | dataValue
COc1nn([C@@H]2O[C@H](COS(N)(=O)=O)[C@@H](O)[C@@H]2F)c2ncnc(N)c12 | nM | 177
Nc1ncnc2c1c(OC(F)F)nn2[C@@H]1O[C@H](COS(N)(=O)=O)[C@@H](O)[C@@H]1F | nM | 43
Nc1ncnc2c1c(CCc1ccccc1)nn2[C@@H]1O[C@H](COS(N)(=O)=O)[C@@H](O)[C@H]1O | nM | 351
CSc1nn([C@H]2C[C@H](O)[C@@H](COS(N)(=O)=O)O2)c2ncnc(N)c12 | nM | 48
CC(C)Sc1nn([C@@H]2O[C@H](COS(N)(=O)=O)[C@@H](O)[C@H]2O)c2ncnc(N)c12 | nM | 17
Nc1ncnc2c1c(Sc1cccc(Cl)c1)nn2[C@H]1C[C@H](O)[C@@H](COS(N)(=O)=O)O1 | nM | 104
CSc1nn([C@@H]2O[C@@H](COS(N)(=O)=O)[C@@H](O)[C@@H]2F)c2ncnc(N)c12 | nM | 145
Nc1ncnc2c1c(OC(F)F)nn2[C@H]1C[C@H](O)[C@@H](COS(N)(=O)=O)O1 | nM | 100

* * *

Listed next: entries and their corresponding IC50.
- targetDesc: Ubiquitin-like modifier-activating enzyme ATG7 (Homo sapiens)
- assayText: Inhibition of ATG7 in human 293HEK cells assessed as inhibition of ATG7:ATG8 thioester formation after 4 hrs by Western blot analysis
- Format: cell-based, HEK293

compoundString | IC50 (nM)
Cc1cccc(Sc2nn([C@H]3C[C@H](O)[C@@H](COS(N)(=O)=O)O3)c3ncnc(N)c23)c1 | 422
Cc1cccc(Sc2nn([C@@H]3O[C@H](COS(N)(=O)=O)[C@@H](O)[C@@H]3F)c3ncnc(N)c23)c1 | 140
Nc1ncnc2c1c(SCc1ccccc1)nn2[C@@H]1O[C@H](COS(N)(=O)=O)[C@@H](O)[C@H]1O | 604
CSc1nn([C@@H]2O[C@@H](COS(N)(=O)=O)[C@@H](O)[C@H]2O)c2ncnc(N)c12 | 1280

* * *

- targetDesc: Ubiquitin-like modifier-activating enzyme ATG7 (Homo sapiens, UniProt O95352)
- Sequence (O95352 whole entry): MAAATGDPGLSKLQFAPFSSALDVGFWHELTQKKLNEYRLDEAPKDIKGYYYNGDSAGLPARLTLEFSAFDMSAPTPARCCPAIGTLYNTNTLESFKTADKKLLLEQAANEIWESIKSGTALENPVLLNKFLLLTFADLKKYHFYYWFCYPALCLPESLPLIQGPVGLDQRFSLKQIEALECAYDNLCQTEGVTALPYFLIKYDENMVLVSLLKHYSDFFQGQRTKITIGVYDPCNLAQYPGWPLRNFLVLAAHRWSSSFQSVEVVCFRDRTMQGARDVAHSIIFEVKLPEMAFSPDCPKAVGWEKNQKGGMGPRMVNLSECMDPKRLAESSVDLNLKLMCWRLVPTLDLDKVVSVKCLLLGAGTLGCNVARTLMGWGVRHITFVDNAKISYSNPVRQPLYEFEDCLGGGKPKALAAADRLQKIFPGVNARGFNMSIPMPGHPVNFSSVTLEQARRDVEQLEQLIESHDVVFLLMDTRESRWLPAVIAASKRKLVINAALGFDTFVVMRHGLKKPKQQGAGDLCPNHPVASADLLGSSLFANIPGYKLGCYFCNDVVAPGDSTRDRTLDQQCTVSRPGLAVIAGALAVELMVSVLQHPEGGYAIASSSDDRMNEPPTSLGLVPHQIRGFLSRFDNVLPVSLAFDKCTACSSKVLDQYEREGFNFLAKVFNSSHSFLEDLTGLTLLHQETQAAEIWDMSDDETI
- assayText: Inhibition of ATG7 in human 293HEK cells assessed as inhibition of ATG7:ATG8 thioester formation after 8 hrs by Western blot analysis
- Format: cell-based, HEK293
Listed next: entries and their corresponding IC50.

compoundString | IC50
Nc1ncnc2c1c(Sc1ccccc1)nn2[C@@H]1O[C@H](COS(N)(=O)=O)[C@@H](O)[C@H]1O | 201 nM
CC(C)Sc1nn([C@@H]2O[C@H](COS(N)(=O)=O)[C@@H](O)[C@@H]2F)c2ncnc(N)c12 | 56 nM
COc1nn([C@@H]2O[C@H](COS(N)(=O)=O)[C@@H](O)[C@H]2O)c2ncnc(N)c12 | 335 nM
Cc1cccc(Sc2nn([C@@H]3O[C@H](COS(N)(=O)=O)[C@@H](O)[C@@H]3F)c3ncnc(N)c23)c1 | 51 nM
CC(C)Sc1nn([C@@H]2O[C@@H](COS(N)(=O)=O)[C@@H](O)[C@H]2O)c2ncnc(N)c12 | 882 nM
Nc1ncnc2c1c(Sc1cccc(Cl)c1)nn2[C@@H]1O[C@H](COS(N)(=O)=O)[C@@H](O)[C@@H]1F | 56 nM
Nc1ncnc2c1c(OCc1ccccc1)nn2[C@@H]1O[C@H](COS(N)(=O)=O)[C@@H](O)[C@H]1O | 1280 nM
COc1nn([C@@H]2O[C@H](COS(N)(=O)=O)[C@@H](O)[C@@H]2F)c2ncnc(N)c12 | 317 nM
CC(C)Sc1nn([C@H]2C[C@H](O)[C@@H](COS(N)(=O)=O)O2)c2ncnc(N)c12 | 150 nM
Nc1ncnc2c1c(OC(F)F)nn2[C@H]1C[C@H](O)[C@@H](COS(N)(=O)=O)O1 | 545 nM
CSc1nn([C@H]2C[C@H](O)[C@@H](COS(N)(=O)=O)O2)c2ncnc(N)c12 | 86 nM
CC(C)Sc1nn([C@@H]2O[C@H](COS(N)(=O)=O)[C@@H](O)[C@H]2O)c2ncnc(N)c12 | 284 nM
CSc1nn([C@@H]2O[C@H](COS(N)(=O)=O)[C@@H](O)[C@H]2O)c2ncnc(N)c12 | 83 nM
Nc1ncnc2c1c(SCc1ccccc1)nn2[C@@H]1O[C@H](COS(N)(=O)=O)[C@@H](O)[C@H]1O | 322 nM
Cc1cccc(Sc2nn([C@@H]3O[C@H](COS(N)(=O)=O)[C@@H](O)[C@H]3O)c3ncnc(N)c23)c1 | 178 nM
Nc1ncnc2c1c(OC(F)F)nn2[C@@H]1O[C@H](COS(N)(=O)=O)[C@@H](O)[C@H]1O | 162 nM
CCSc1nn([C@@H]2O[C@H](COS(N)(=O)=O)[C@@H](O)[C@H]2O)c2ncnc(N)c12 | 160 nM
CSc1nn([C@@H]2O[C@H](COS(N)(=O)=O)[C@@H](O)[C@@H]2F)c2ncnc(N)c12 | 47 nM

* * *

- targetDesc: Ubiquitin-like modifier-activating enzyme ATG7 (Homo sapiens)
- assayText: Inhibition of recombinant His-tagged human ATG7 incubated for 105 mins in presence of GST-tagged ATG3 and Flag-tagged Gabarap and measured after 2 hrs by FRET assay relative to control
Checkbox rule: IC50 lower than 0.03 µM = True; IC50 not lower than 0.03 µM = False.

compoundString | classAssignment
Nc1ncnc2c1c(Sc1ccccc1)nn2[C@@H]1O[C@H](COS(N)(=O)=O)[C@@H](O)[C@H]1O | True
Nc1ncnc2c1c(Sc1cccc(Cl)c1)nn2[C@@H]1O[C@H](COS(N)(=O)=O)[C@@H](O)[C@@H]1F | False
CC(C)Oc1nn([C@@H]2O[C@H](COS(N)(=O)=O)[C@@H](O)[C@H]2O)c2ncnc(N)c12 | False
CC(C)Sc1nn([C@@H]2O[C@@H](COS(N)(=O)=O)[C@@H](O)[C@H]2O)c2ncnc(N)c12 | False
Nc1ncnc2c1c(OC(F)F)nn2[C@@H]1O[C@H](COS(N)(=O)=O)[C@@H](O)[C@H]1O | True
CSc1nn([C@@H]2O[C@@H](COS(N)(=O)=O)[C@@H](O)[C@H]2O)c2ncnc(N)c12 | False
Nc1ncnc2c1cnn2[C@@H]1O[C@H](COS(N)(=O)=O)[C@@H](O)[C@H]1O | False
Cc1cccc(Sc2nn([C@@H]3O[C@H](COS(N)(=O)=O)[C@@H](O)[C@H]3O)c3ncnc(N)c23)c1 | True
CSc1nn([C@H]2C[C@H](O)[C@H](COS(N)(=O)=O)O2)c2ncnc(N)c12 | False
Nc1ncnc2c1c(Sc1ccc3c(c1)CCC3)nn2[C@H]1C[C@H](O)[C@@H](COS(N)(=O)=O)O1 | False
Nc1ncnc2c1c(SCc1ccccc1)nn2[C@@H]1O[C@H](COS(N)(=O)=O)[C@@H](O)[C@H]1O | True
COc1nn([C@H]2C[C@H](O)[C@@H](COS(N)(=O)=O)O2)c2ncnc(N)c12 | False
Nc1ncnc2c1c(Sc1cn[nH]c1)nn2[C@@H]1O[C@H](COS(N)(=O)=O)[C@@H](O)[C@H]1O | True
Nc1ncnc2c1c(OCc1ccccc1)nn2[C@@H]1O[C@H](COS(N)(=O)=O)[C@@H](O)[C@H]1O | False
CSc1nn([C@@H]2O[C@H](COS(N)(=O)=O)[C@@H](O)[C@@H]2F)c2ncnc(N)c12 | False
CCSc1nn([C@@H]2O[C@H](COS(N)(=O)=O)[C@@H](O)[C@H]2O)c2ncnc(N)c12 | True
CC(C)Sc1nn([C@H]2C[C@H](O)[C@@H](COS(N)(=O)=O)O2)c2ncnc(N)c12 | True

* * *

Listed next: entries and their corresponding pIC50.
- targetDesc: Ubiquitin-like modifier-activating enzyme ATG7 (Homo sapiens)
- assayText: Inhibition of recombinant His-tagged human ATG7 incubated for 105 mins in presence of GST-tagged ATG3 and Flag-tagged Gabarap and measured after 2 hrs by FRET assay relative to control
pIC50: −log10 of the molar value.

compoundString | pIC50
COc1nn([C@@H]2O[C@H](COS(N)(=O)=O)[C@@H](O)[C@H]2O)c2ncnc(N)c12 | 7.05
Cc1ccc(Sc2nn([C@H]3C[C@H](O)[C@@H](COS(N)(=O)=O)O3)c3ncnc(N)c23)c(F)c1 | 7.10
Nc1ncnc2c1c(Sc1ccc3c(c1)CCC3)nn2[C@H]1C[C@H](O)[C@H](COS(N)(=O)=O)O1 | 6.81
CCSc1nn([C@H]2C[C@H](O)[C@@H](COS(N)(=O)=O)O2)c2ncnc(N)c12 | 7.28
CSc1nn([C@@H]2O[C@H](COS(N)(=O)=O)[C@@H](O)[C@H]2O)c2ncnc(N)c12 | 7.85
CC(C)Sc1nn([C@H]2C[C@H](O)[C@H](COS(N)(=O)=O)O2)c2ncnc(N)c12 | 7.24
Nc1ncnc2c1c(Sc1cccc(Cl)c1)nn2[C@H]1C[C@H](O)[C@H](COS(N)(=O)=O)O1 | 6.72
CCOc1nn([C@@H]2O[C@H](COS(N)(=O)=O)[C@@H](O)[C@H]2O)c2ncnc(N)c12 | 6.59
CC(C)Sc1nn([C@@H]2O[C@H](COS(N)(=O)=O)[C@@H](O)[C@@H]2F)c2ncnc(N)c12 | 7.70
Cc1cccc(Sc2nn([C@H]3C[C@H](O)[C@@H](COS(N)(=O)=O)O3)c3ncnc(N)c23)c1 | 7.02
Nc1ncnc2c1c(O)nn2[C@@H]1O[C@H](COS(N)(=O)=O)[C@@H](O)[C@H]1O | 7.08
Cc1ccc(Sc2nn([C@H]3C[C@H](O)[C@H](COS(N)(=O)=O)O3)c3ncnc(N)c23)c(F)c1 | 7.21
